# credit: the supplement of paper PMC10567573

B1: FUNDC2 (parent)
chain: YIKVDWQRVEKDMKKAKEQLKIRK

Variants of: B1
protocol-description: protein stability index of a GFP-peptide fusion (GPS, HEK-293T) (PSI 1-6); higher = more stable;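 note: lentivirally expressed fusions sorted by FACS into six bins by GFP to DsRed ratio, PSI derived from sequencing read proportions per bin multiplied by bin number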
assay-setup: c terminus: a fixed tail appended
Kind request: treat 2 as inclusive, so protein stability index at 2 or higher is Y, anything lower is N.

> print(dat)
   variant.string  category.label
1             D5S               N
2             V4I               Y
3             R8G               N

Ask | Determine whether this variant has protein stability index no lower than 2: `K21V`
Reply | Y

Ask | Determine whether this variant has protein stability index no lower than 2: `K11M`
Reply | N

Ask | Determine whether this variant has protein stability index no lower than 2: `R8P`
Reply | Y

Ask | Is it the case that `V4F` has protein stability index reaching or exceeding 2?
Reply | N

Ask | Check this variant for protein stability index at or above 2: `I2N`
Reply | Y

Ask | Given the entry `E10S` , answer whether its protein stability index meets or surpasses 2.
Reply | Y
